# target-under-test: T1, dimeric hIL-4R-hFc (human, UniProt P24394 26-232)
# T1 construct: also called hIL-4R-Fc; not shown: human Fc (hFc)
# T1 sequence: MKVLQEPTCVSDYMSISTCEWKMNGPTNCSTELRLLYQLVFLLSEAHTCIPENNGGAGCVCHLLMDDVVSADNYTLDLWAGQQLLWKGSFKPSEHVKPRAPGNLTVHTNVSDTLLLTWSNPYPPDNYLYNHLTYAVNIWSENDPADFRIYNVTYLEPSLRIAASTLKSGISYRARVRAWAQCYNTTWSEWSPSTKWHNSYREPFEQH
# method-notes: ELISA; antibody titrated against 25 pM hIL-4R-Fc, free receptor caught on hIL-4 plate
measurement-label: IC50 (nM)
Numeric only. Scale: nM

Item under review: VAK9C6-11 (antibody, V domains shown, Apparently tested with mouse constant region (anti-mouse IgG capture/detection)) VH: QVQLVESGGGVVQPGRSLRLSCAASGFTFSSYGMHWVRQAPGKGLEWVTVISYDGSIKYYVDSVKGRFTISRDNSKNTLFLQMNSLRVEDTAVYYCAKEGRKYGMDVWGQGTTVTVSS VL: DIQMTQSPSTLSASVGDRVTITCRASQIISSLLVWYQQKPGKAPKLLIYKASSLESGVPSRFSGSGSGTEFTLTISSLQPDDFATYYCQQYHSYMYTFGQGTKLEIK . Reported IC50? 0.067

Data provenance: patent US20080160035A1
